B1: Limonene-1,2-epoxide hydrolase, Q9ZAG3 (parent)
chain: MTSKIEQPRWASKDSAAGAASTPDEKIVLEFMDALTSNDAAKLIEYFAEDTMYQNMPLPPAYGRDAVEQTLAGLFTVMSIDAVETFHIGSSNGLVYTERVDVLRALPTGKSYNLSILGVFQLTEGKITGWRDYFDLREFEEAVDLPLRG

Variants of: B1
TEST CONDITIONS: Rhodococcus erythropolis; pH 7.1; Thermal; Fluorescence; Potassium phosphate 50mM; transition: 2; reversible: no; structure 1NWW; whole UniProt chain shown
OUTCOME MEASURE: Tm (°C)
Use °C as the unit, but write only the number.

Known results for variants:
SEQUENCE VARIANT | ENDPOINT UNIT | Tm
G18N | °C | 49.1
A41R | °C | 48.8
S12R | °C | 49

Entry S111R has what Tm?
48.8
